biological target: CYP2D6 (Homo sapiens, UniProt P10635); experiment: Inhibition of recombinant human CYP2D6 assessed as remaining activity at 10 uM preincubated for 5 mins before substrate addition by Vivid fluorescence assay; type: ADME; conditions: read-out: Activity
Sequence (P10635 whole entry): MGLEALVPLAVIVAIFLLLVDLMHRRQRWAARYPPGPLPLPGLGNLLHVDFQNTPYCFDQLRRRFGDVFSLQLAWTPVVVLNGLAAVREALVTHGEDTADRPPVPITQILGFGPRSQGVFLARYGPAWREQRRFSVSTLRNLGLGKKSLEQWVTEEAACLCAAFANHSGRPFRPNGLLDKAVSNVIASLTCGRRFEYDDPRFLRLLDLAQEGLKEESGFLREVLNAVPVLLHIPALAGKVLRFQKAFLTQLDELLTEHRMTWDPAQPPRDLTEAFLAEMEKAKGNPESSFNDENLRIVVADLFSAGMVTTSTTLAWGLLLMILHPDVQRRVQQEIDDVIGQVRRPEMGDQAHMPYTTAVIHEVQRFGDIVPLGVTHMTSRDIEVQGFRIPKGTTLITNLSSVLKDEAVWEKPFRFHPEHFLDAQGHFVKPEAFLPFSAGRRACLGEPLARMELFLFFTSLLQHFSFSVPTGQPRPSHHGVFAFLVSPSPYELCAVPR
observation.type: activity at 10 µM (%)

| item.smiles | activity at 10 µM (%) |
| --- | --- |
| COc1ccc(-n2cnc3c(-c4ccccc4F)csc3c2=O)cc1 | 102 |
| COc1ccc(-n2cnc3c(-c4ccccc4C)csc3c2=O)cc1 | 84.9 |
| COc1ccc(-n2cnc3c(-c4ccccc4)csc3c2=O)cc1 | 90.4 |
| C#CCNc1ccnc2sc3c(=O)n(-c4ccc(OC)cc4)cnc3c12 | 80 |
